Entry source: paper PMC3985611

molecular target: Hsp70 (Homo sapiens, UniProt P0DMV8); test: competition of YK5-biotin pull-down in cancer cells
Sequence (P0DMV8 2-641): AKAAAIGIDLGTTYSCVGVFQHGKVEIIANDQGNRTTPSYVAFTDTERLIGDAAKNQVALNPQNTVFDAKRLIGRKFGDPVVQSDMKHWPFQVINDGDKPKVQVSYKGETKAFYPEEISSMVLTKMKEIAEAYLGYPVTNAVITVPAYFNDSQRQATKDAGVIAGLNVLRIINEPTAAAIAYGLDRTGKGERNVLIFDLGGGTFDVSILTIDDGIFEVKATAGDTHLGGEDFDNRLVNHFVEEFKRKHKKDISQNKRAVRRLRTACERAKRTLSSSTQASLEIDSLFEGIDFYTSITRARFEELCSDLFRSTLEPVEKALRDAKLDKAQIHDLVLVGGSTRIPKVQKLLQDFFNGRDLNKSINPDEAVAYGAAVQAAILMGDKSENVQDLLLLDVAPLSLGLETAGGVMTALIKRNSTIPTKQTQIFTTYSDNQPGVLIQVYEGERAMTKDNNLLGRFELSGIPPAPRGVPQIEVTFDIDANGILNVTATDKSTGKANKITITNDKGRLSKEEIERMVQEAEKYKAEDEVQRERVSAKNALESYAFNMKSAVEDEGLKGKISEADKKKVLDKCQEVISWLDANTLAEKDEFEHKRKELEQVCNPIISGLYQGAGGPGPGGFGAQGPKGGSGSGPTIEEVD
pIC50: −log10 of the molar value.
Test Readout: pIC50

C=CC(=O)Nc1cc(N)nc(Sc2c(OC)nc(N3CCN(C)CC3)nc2OC)n1 [YK5] yielded pIC50 of ~5.15
